methodDescription: Phase I study CXR1002-001: plasma pharmacokinetics (LC-MS/MS)
Assay type: in vivo, human
testParameters: human, plasma, oral, 200 mg, Patient 009 Dose 200 mg; 696 hr (Day 30); read-out: Concentration
Source text: PK samples, PD (fasting) samples, blood glucose, and blood triglyceride samples, were taken over a 6-week period. Dose limiting toxicity (DLT) will be based on the toxicity assessments over the first 3-week period of the repeat dosing schedule. […]
measuredParameter: concentration at 696 h (µM)
Write the answer as a number in µM, unit excluded.

[Q] GET /values?readout=concentration at 696 h&item= "O=C(O)C(F)(F)C(F)(F)C(F)(F)C(F)(F)C(F)(F)C(F)(F)C(F)(F)F"
[A] 338
